Source listed as the RNAGym collection of RNA variant scans (doi:10.1002/anie.201605470).

B1: Osa-1-4 twister ribozyme (parent)
chain: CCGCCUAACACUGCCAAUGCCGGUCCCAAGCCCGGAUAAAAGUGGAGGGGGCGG

Variants of: B1
Assay: self-cleavage, relative activity (ratio to wild type); higher = more cleavage; co-transcriptional
Readout type: self-cleavage
Reply briefly: the number, and no unit.

INSERT INTO measurements (chain, reported_result) VALUES
  ('CCGCCUAACACUGCCAAUGCCGGUCCCCAGCCCGGAUAAAACUGGAGGGGGCGG [A28C G42C]', 0.12),
  ('CCGCCUAACACUGCCAAUGCCGGUCCCAAGCCCGGAUAAAAGUGGAGGGGGCUG [G53U]', 0.56),
  ('CCGCCUAACCCUGCCAAUGCCGGCCCCAAGCCCGGAUAAAAGUGGAGGGGGCGG [A10C U24C]', 0.04),
  ('CCGCCUAACACUGCCAAUGCCCGUCCCAAGCCCGGAUAAAAAUGGAGGGGGCGG [G22C G42A]', 0.03),
  ('CCGCCUAACACGGCCAAUGCCGGUCCCAAGCCCGGAUAAAAGGGGAGGGGGCGG [U12G U43G]', 0.1),
  ('CCGCCUAACUCUACCAAUGCCGGUCCCAAGCCCGGAUAAAAGUGGAGGGGGCGG [A10U G13A]', 0.01),
  ('CCGCCUAACACUGCCAAUGCCGGUCCCAAGCCCCGAUAAAAGUGGGGGGGGCGG [A46G G34C]', 0.05),
  ('CCGCCUAACACUGCCAAUGCCGGUCCCACGCCCGGAUAAAAGUGGAGGGGGCGU [A29C G54U]', 0.08),
  ('CCGCCUAACACUGCCAAUGCCGGUGCCAAGCCCGGCUAAAAGUGGAGGGGGCGG [A36C C25G]', 0.04),
  ('CCGCCUAACACUGUCCAUGCCGGUCCCAAGCCCGGAUAAAAGUGGAGGGGGCGG [A16C C14U]', 0.27);

Note: attention shifts to another entry.
Need self-cleavage, item CCGCCUAACACUGCCAAUGCCGGUCCCAAGCCCGGAAAAAAGUGGAGAGGGCGG [G48A U37A]
0.06
